Test system: HL-60(TB) leukemia
Experiment: NCI-60 one-dose screen, 48 h (100 = growth as untreated, 0 = no growth, -100 = all killed)
Settings: 10 µM unless noted
The panel holds about 83,000 compounds, 20% with a hit somewhere; the sample as a whole holds those more often. Activity calls are given as the source filed them. Rule for the calls: active = growth percent below 10; inactive = the rest.
# growth annotations
readout-label: growth

[[record]]
molecule = "CCCCCC(C)c1ccc(O)c(C)c1 (stereo not drawn)"
endpoint_value = "91.4% (inactive)"

[[record]]
molecule = "COc1ccc(-n2ncc3c4nc(OC)c(S(=O)(=O)c5ccccc5)cc4ccc32)cc1"
endpoint_value = "107% (inactive)"

[[record]]
molecule = "COc1ccc(C(=O)c2cc(OC)c(C)c(OC)c2)cc1OC(=O)CCl"
endpoint_value = "-28.5% (active)"

[[record]]
molecule = "CC(C)C[C@H](NC(=O)Cn1ccc2ccccc2c1=O)B(O)O"
endpoint_value = "27.9% (inactive)"

[[record]]
molecule = "OB([O][Hg][c]1ccccc1)[O][Hg][c]1ccccc1"
endpoint_value = "-53.3% (active)"

[[record]]
molecule = "CCOC(=O)C1(C(=O)OCC)N=C(c2ccccc2)C=C1c1ccccc1"
endpoint_value = "87.2% (inactive)"

[[record]]
molecule = "COc1ccc(-c2cnc(SCC(=O)Nc3ccc(-c4nc5ccccc5s4)cc3)n2-c2ccc(OC)cc2)cc1"
endpoint_value = "106% (inactive)"

[[record]]
molecule = "CCNCC(=O)Nc1ccc(C(=O)OCC)cc1"
endpoint_value = "88.6% (inactive)"

[[record]]
molecule = "COc1cc(C2CC(c3ccc(Nc4nc(NCCO)nc(NCCO)n4)cc3)=NN2c2cc(Cl)cc(Cl)c2)cc(OC)c1OC (stereo not drawn)"
endpoint_value = "-5.04% (active)"

[[record]]
molecule = "O=C(N/N=C/c1ccc(Cl)cc1Cl)c1ccc2nc(-c3ccc(Cl)cc3)[nH]c2c1"
endpoint_value = "5.77% (active)"

[[record]]
molecule = "Cc1c(C)c2c(c(C)c1OCC(=O)O)CC[C@@](C)(CCC[C@@H](C)CCC[C@@H](C)CCCC(C)C)O2"
endpoint_value = "1.94% [50 µM] (active)"

[[record]]
molecule = "Nc1c(C(=O)c2ccccc2)sc2nc(-c3cccs3)ccc12"
endpoint_value = "9.36% (active)"

[[record]]
molecule = "C=CC[N+](C)(C)C"
endpoint_value = "107% (inactive)"

[[record]]
molecule = "COc1ccc2c(c1)CC[C@@H]1[C@@H]2CC[C@]2(C)[C@@H](O)C(=O)C[C@@H]12"
endpoint_value = "108% (inactive)"

[[record]]
molecule = "C#Cc1cccc(Oc2ccc(NC(=O)CCl)cc2)c1"
endpoint_value = "0.122% [8.25 µM] (active)"

[[record]]
molecule = "c1ccc(Nc2cc(-c3cccnc3)[nH]n2)cc1"
endpoint_value = "89.3% (inactive)"

[[record]]
molecule = "Cc1cc(C)c(NC(=O)c2sc3nc4c(cc3c2N)CCCC4)c(C)c1"
endpoint_value = "-6.2% (active)"

[[record]]
molecule = "O=C(O)c1ccc2c3ccc(C(=O)O)c4c(C(=O)O)ccc(c5ccc(C(=O)O)c1c25)c43"
endpoint_value = "111% (inactive)"

[[record]]
molecule = "CCCN=C1NC(=O)/C(=C/c2nc(-c3ccc(OC)cc3)n3ccccc23)S1"
endpoint_value = "79.8% (inactive)"

[[record]]
molecule = "CC1C(=O)c2ccccc2CC1C(=O)O (stereo not drawn)"
endpoint_value = "99.7% (inactive)"

[[record]]
molecule = "CN(C(=O)NCc1cccc(F)c1Cl)[C@H](COC(=O)Nc1cc2ccccc2cn1)CC(O)CO (stereo partly drawn)"
endpoint_value = "90.5% (inactive)"

[[record]]
molecule = "O=[N+]([O-])c1cccc(-c2nc3sccn3c2-c2ccnc(NCCCNS(=O)(=O)c3ccc(Cl)cc3)n2)c1"
endpoint_value = "26.1% (inactive)"

[[record]]
molecule = "COc1ccc(NC(=O)COCCOCCNC[C@@H]2C(=O)O[C@H]3[C@H]2CC/C(COC(=O)OC/C2=C/CC[C@@]4(C)O[C@H]4[C@H]4OC(=O)[C@@H](CN(C)C)[C@@H]4CC2)=C\\CC[C@@]2(C)O[C@@H]32)c(O)c1C(N)=O"
endpoint_value = "-48.2% (active)"

[[record]]
molecule = "OC1CSSC1Cn1cnc2c(Nc3ccc(OCc4cccc(F)c4)c(Cl)c3)ncnc21 (stereo not drawn)"
endpoint_value = "-29.3% (active)"

[[record]]
molecule = "Cc1cc(N2CCN(CC(=O)Nc3ccc4c(ccn4Cc4ccccc4)c3)CC2)nc(N2CCCCCC2)n1"
endpoint_value = "12.1% (inactive)"

[[record]]
molecule = "CCOC(=O)c1cnc2c(C)cc(C)cc2c1NCCCN(C)C"
endpoint_value = "9.86% (active)"

[[record]]
molecule = "C=C1C(=O)O[C@H]2[C@H]1CC/C(COC(=O)CCCCCC(=O)OC/C1=C/CC[C@@]3(C)O[C@H]3[C@H]3OC(=O)C(=C)[C@@H]3CC1)=C\\CC[C@@]1(C)O[C@@H]21"
endpoint_value = "-30% (active)"

[[record]]
molecule = "COC(=O)c1ccc2[nH]c(O)c(C(=Nc3ccc(N(C)C(=O)CN4CCN(C)CC4)cc3)c3ccc([N+](=O)[O-])cc3)c2c1"
endpoint_value = "11.6% (inactive)"

[[record]]
molecule = "CC(=O)C1CCC2C3CC(F)C4=CC(=O)CCC4(C)C3C(O)CC12C (stereo not drawn)"
endpoint_value = "94.2% (inactive)"

[[record]]
molecule = "CCCNC(=O)Oc1ccc(/C(=C(\\C)c2ccccc2)c2ccc(OCCCN(C)C)cc2)cc1"
endpoint_value = "65.3% (inactive)"

[[record]]
molecule = "CCn1cc(C(=O)O)c(=O)c2cc(F)c(N3CCN(S(=O)(=O)c4ccc(Cl)cc4)CC3)cc21"
endpoint_value = "8.96% (active)"

[[record]]
molecule = "CN1CCC2(CC1)N=C(SCC(=O)Nc1cnc3ccccc3c1)C(c1ccc(Br)cc1)=N2"
endpoint_value = "-40.7% (active)"

[[record]]
molecule = "CC(C)(C)CC(C)(C)NC(=O)Nc1ncccc1OCc1ccccc1"
endpoint_value = "90.5% (inactive)"

[[record]]
molecule = "O=c1c(/C=C/c2ccco2)nnc2sc(Nc3ccc(Cl)cc3)nn12"
endpoint_value = "101% (inactive)"

[[record]]
molecule = "C=C(C)[C@@H]1CCC[C@]2(C(=O)O)CC[C@]3(C)[C@@H](CC[C@@H]4[C@@]5(C)C/C(=C/c6ccncc6)C(=O)C(C)(C)[C@@H]5CC[C@]43C)[C@@H]12"
endpoint_value = "-5.12% (active)"

[[record]]
molecule = "Cc1ccccc1-n1nnc(C(=O)Nc2ccc(-c3ccccc3)cn2)c1C"
endpoint_value = "28.8% [50 µM] (inactive)"

[[record]]
molecule = "Cc1cccc2c1C[C@@]1(C2=O)C(c2ccc(C(C)(C)C)cc2)=NOS1=O (stereo partly drawn)"
endpoint_value = "100% (inactive)"

[[record]]
molecule = "COc1ccc(C(=O)c2cc(C)c(OC)c(C)c2)c(OC)c1N(C(=O)CCl)C(=O)CCl"
endpoint_value = "-42.3% (active)"

